Tested on: SF-295 CNS
procedure-text: NCI tumour cell line growth inhibition, 48 h; in the data active = GI50 below about 0.43 µM; inactive = the rest
Choose one outcome from this list and give only that: class 1 = active, class 0 = inactive

Would you please look over these solved cases?
molecule=COc1ccccc1Nc1cc(O)c2c(=O)cc(-c3ccccc3)oc2c1 label="class 0"
molecule=O=C(NCCCCN1CCOCC1)c1cc2ccccc2o1 label="class 0"
molecule="COc1cc(/C=C2\\CC3C4CC=C5C[C@@H](OC(C)=O)CC[C@]5(C)C4CC[C@]3(C)C2=O)ccc1OCCN1CCCCC1 (stereo partly drawn)" label="class 0"

Could you kindly confirm the outcome this assay logged for O=C1Nc2c(ccc(Cl)c2Cl)/C1=C/c1cc(Br)c(O)c(Br)c1 ?
class 0

Could you kindly confirm the outcome this assay logged for COc1cc(/C=C/c2cc(/C=C/c3ccc(O)c(OC)c3)n(C(=O)c3ccc(Cl)cc3)n2)ccc1O ?
class 0

====

Test system: SK-MEL-28 melanoma
procedure-text: NCI tumour cell line growth inhibition, 48 h
Listed here are compounds together with their documented TGI.

Some solved entries appear below for comparison.
compound=CCOC(=O)C1=CCCC[C@H]1S(=O)(=O)Nc1ccc(F)cc1Cl observed_property=TGI reported="> 100 µM"
compound="CC(=O)Nc1ccc2c3c(cc(O)c2c1)N(C(=O)CCCC(=O)N1CC(CCl)c2c1cc(O)c1cc(NC(C)=O)ccc21)CC3CCl (stereo not given)" observed_property=TGI reported="> 100 µM"
compound=COC(=O)CCC(=O)c1ccc2c(c1)CCC2 observed_property=TGI reported="> 100 µM"

// switching to the query compound
Please provide the recorded TGI for CCC[C@H]1O[C@@H]2CC(=O)O[C@@H]2C2=C1C(=O)C=CC2=O , tested on SK-MEL-28 melanoma.
31.5 µM

====

Test system: MDA-N
procedure-text: NCI tumour cell line growth inhibition, 48 h
observed-property: TGI

Some solved entries appear below for comparison.
compound=CC(=O)OC[C@H]1CN(OC(C)=O)C[C@@H](n2cc(C)c(=O)[nH]c2=O)O1 measured_on=MDA-N reported="> 100 µM"
compound="Cc1c(C)c2ccc(OCC(O)COC(C)C)c(C)c2oc1=O (centres undefined)" measured_on=MDA-N reported="33 µM"
compound=CSC1=N/C(=C\c2ccc(Cl)cc2)C(=O)N1CN1CCCCC1 measured_on=MDA-N reported="> 100 µM"

// switching to the query compound
# query: TGI of entry C=CCOC(=O)CC[C@H](NC(=O)[C@@H](CCC(F)(F)F)Cc1ccc(O)cc1)C(=O)OCC=C
> 100 µM

====

Tested on: SK-MEL-2 melanoma
procedure-text: NCI tumour cell line growth inhibition, 48 h
observed-property: TGI

# query: TGI of entry C=CC(=O)Nc1ccc(NC(=O)C=C)c2c1C(=O)c1ccccc1C2=O
> 100 µM

# query: TGI of entry O=C(COc1ccc(Cl)c(Cl)c1)Nc1ccc[n+](Cc2ccc(S(=O)(=O)F)c(Cl)c2)c1
> 100 µM

# query: TGI of entry CCOC(=O)C1(C#N)OC(=O)c2cnccc21 (stereo not given)
> 100 µM

# query: TGI of entry CC(C)(C)C1=CC(=C(P(=O)(O)O)P(=O)(O)O)C=C(C(C)(C)C)C1=O
> 50 µM

# query: TGI of entry Fc1ccc(-c2c(-c3ccncc3)nc3n2CCS3)cc1
> 25 µM
